# EXPERIMENTAL_DETAILS: qHTS assay to identify small molecule antagonists of the thyroid receptor (TR) signaling pathway - cell viability counter screen (AID 743064); further: nearly all actives have a fitted effect of over 50% in size
# RUN_CONDITIONS: GH3.TRE-Luc viability, CellTiter-Fluor, 24 h; series mostly up to 70.3 µM
# Text: National Center for Advancing Translational Sciences [NCATS] NIH Chemical Genomics Center [NCGC] U.S. Environmental Protection Agency [EPA] National Institutes of Environmental Health Sciences [NIEHS] National Toxicology Program [NTP] U.S. Food and Drug Administration [FDA] Thyroid receptor (TR), a nuclear hormone receptor, plays an important role in development, proliferation, differentiation, metabolism, brain function, and cardiovascular system. […]
Inconclusive results are not listed. Activity calls are given as the source filed them. The call rests on the fitted dose curve; in most records, active means well fitted cell-killing curve with a large enough effect in the repeat runs; inconclusive means weak or mixed curves, or effect the other way; inactive means no such curve, though single readings can be large or run the other way.
Your response should consist of one outcome taken from True for active, False for inactive

Hey, what did the test say about CCC(C)Nc1ccc(NC(C)CC)cc1 (stereo unspecified) ?
True

Hey, what did the test say about `Clc1ccc2nsnc2c1NC1=NCCN1` ?
False

Hey, what did the test say about `COc1cc(/C=C/C(=O)O[C@H]2CC[C@]34C[C@]35CC[C@]3(C)[C@@H]([C@H](C)CCC=C(C)C)CC[C@@]3(C)[C@@H]5CC[C@H]4C2(C)C)ccc1O` ?
False

Hey, what did the test say about `O=C(O)c1cc(O)c2c(c1)C(=O)c1cccc(O)c1C2=O` ?
False

Hey, what did the test say about `[Cl][Bi]([Cl])([c]1ccccc1)([c]1ccccc1)[c]1ccccc1` ?
True

Hey, what did the test say about `CC1=C(/C=C/C(C)=C/C=C/C(C)=C/C=O)C(C)(C)CCC1` ?
True

Hey, what did the test say about `C[n+]1cc2c3c(ccc2c2ccc4cc5c(cc4c21)OCO5)OCO3` ?
True

Hey, what did the test say about `Cc1c(C)c2c(c(C)c1OC(=O)CCC(=O)O)CC[C@@](C)(CCC[C@H](C)CCC[C@H](C)CCCC(C)C)O2` ?
True

Hey, what did the test say about `N=C1N=C(N)c2cc3ccccc3cc21` ?
True

Hey, what did the test say about `CC(C)(C)C(=O)OCOC(=O)[C@@H]1N2C(=O)[C@@H](NC(=O)[C@H](N)c3ccccc3)[C@H]2SC1(C)C` ?
False

Hey, what did the test say about `CC(C)(C)CC(C)(C)c1ccc(O)c(Cc2ccc(Cl)cc2Cl)c1` ?
True

Hey, what did the test say about `CCCCCCC[N+](CC)(CC)CCCCc1ccc(Cl)cc1` ?
False

Hey, what did the test say about `C/C=C1/C(=O)C[C@H]2[C@@H]3CCC4=CC(=O)CC[C@]4(C)[C@H]3CC[C@]12C` ?
False

Hey, what did the test say about `Oc1c(Cl)cc(Cl)c2cccnc12` ?
True

Hey, what did the test say about `CCc1cc(SCc2sc(-c3ccc(C(F)(F)F)cc3)nc2CN2CCN(c3ccc(OC)cc3)CC2)ccc1OCC(=O)O` ?
True

Hey, what did the test say about `COc1ccc(C(=O)/C(Br)=C\C(=O)O)cc1` ?
True

Hey, what did the test say about `CN(C)C(=O)C1(N2CCCCC2)CCN(CC[C@@]2(c3ccc(Cl)c(Cl)c3)CN(C(=O)c3ccccc3)CCO2)CC1` ?
True

Hey, what did the test say about CCCCCCCCS(=O)C(C)Cc1ccc2c(c1)OCO2 (stereo unspecified) ?
True

Hey, what did the test say about `N#CSc1ccc(N)c([N+](=O)[O-])c1` ?
True

Hey, what did the test say about `CCCCCCCCCCCCCCCCCC[N+](C)(C)C` ?
True

Hey, what did the test say about `CCCCCCCCn1sc(Cl)c(Cl)c1=O` ?
True
